Origin of measurements: ChEMBL document CHEMBL4513216

- System: Plasmodium berghei
- experiment summary: Screen against P. berghei liver stage (PbLuc), transformed with Luciferase, at 10uM
- Format: functional, HepG2
- study conditions: tested at 10 uM
Among all 69,000 compounds or so, about 8,600 (12%) showed an effect of 50% or more. The sample as a whole holds a higher share of strong results than the screen did.
Classify by INHIBITION. Ranges: group A: < 10%; group B: ≥ 10% and < 40%; group C: ≥ 40%

Problem: For `CN1CCN(C)C2(CCN(Cc3ccsc3)CC2)C1=O` , which INHIBITION bin applies?
Result: group A

Problem: Which class holds CN(CC(=O)N1CCOCC(CO)C1)Cc1ccc(F)cc1 (configuration not stated) ?
Result: group A

Problem: # bin lookup: classify Cc1nc(CN2C(=O)COC3(CCN(Cc4nccs4)CC3)C2C)cs1 (configuration not stated) by its INHIBITION
Result: group B

Problem: Where would CCc1nc(CN2CCN(C(C)c3nc(C4CC4)no3)CC2)no1 (configuration not stated) land among the classes by reported INHIBITION?
Result: group A

Problem: Which of the defined bands does the recorded INHIBITION of `CN(Cc1cn2c(n1)CN(Cc1ccsc1)CC2)Cc1ccco1` sit within?
Result: group B

Problem: Tag the class for CC(NCc1cccc(COC2CCCC2)c1)c1cnn(C)c1 (configuration not stated)
Result: group A

Problem: Could you place `Cn1cc(NC(=O)N2CCN(Cc3cscn3)CC2)ccc1=O` in its proper category? Many thanks.
Result: group C

Problem: State the class of the compound shown: `CC(C)c1noc(CS(=O)(=O)Cc2nc(C(C)C)no2)n1`
Result: group B

Problem: Class label required: `Cc1ccc(CN2CCn3cc(CN(C)Cc4ccco4)nc3C2)o1`
Result: group A

Problem: Categorize the following entry: `CCn1c(NCc2ccc(OC)cc2)nc2c(C)nn(C)c2c1=O`
Result: group B

Problem: Lab log: `CCCn1c(=O)n(CCC(=O)N(C)Cc2ccc(C)o2)c2ccccc21` — assign INHIBITION category
Result: group C

Problem: In plain terms, what class is `CCN1CCN(C)C2(CCN(C(=O)CC(F)(F)F)CC2)C1=O` ?
Result: group C

Problem: Kindly identify the class of Cc1cnc(CCNC(=O)C2CCN(S(=O)(=O)c3ccc(F)cc3)C2)s1 (configuration not stated) .
Result: group A

Problem: Exercise: read the entry Cc1nc(CN2C(=O)COC3(CCN(Cc4ccsc4)CC3)C2C)cs1 (configuration not stated) and state which class it falls under.
Result: group B

Problem: Exam item: assign `Cc1ccc(C#N)c(N2CCC(c3nccn3Cc3cscn3)CC2)n1` to the correct category.
Result: group B

Problem: Class label required: `Cc1cccc(N2CCN(C(=O)CCc3c(C)noc3Cl)CC2)c1`
Result: group C

Problem: Class label required: `Cc1nc(NCc2ccc(F)cc2)cc(C(=O)N2CCOCC2)n1`
Result: group A

Problem: Which category fits this record: CN(Cc1nccn1C)C1CCCN(Cc2noc(C3CC3)n2)C1 (configuration not stated)
Result: group A

Problem: # bin label for `COc1ccc(CN2CC[C@@H](O)[C@@H]2Cc2cnn(C)c2)cc1`
Result: group B

Problem: GET /class?item= `CN(Cc1cn2c(n1)CN(Cc1nccs1)CC2)Cc1ccco1`
Result: group C

Problem: Looking at CC1N(CC2CC2)C(=O)COC12CCN(Cc1nccs1)CC2 (configuration not stated) , which class would you pick?
Result: group B

Problem: Looking at `Cn1ncc(NCc2cccc(OCC(F)(F)F)c2)c(Cl)c1=O` , which class would you pick?
Result: group C

Problem: Please let me know in which category the item `O=C(c1ccccc1)N1CC[C@H]2C[C@@H](c3nccs3)O[C@@H]2C1` belongs.
Result: group A

Problem: Pick a category. Item: `Cc1ccnc(C2CN(Cc3cnn(-c4ccccc4C(=O)O)c3)C2)n1`
Result: group B

Problem: Into which category would you place `Cc1cccc(C(C)(C)CNc2cn[nH]c(=O)c2Cl)c1` ?
Result: group A

Problem: Lab log: `CC(C)N1CCc2[nH]nc(C(=O)N3CCN(C)CC3)c2C1` — assign INHIBITION category
Result: group A

Problem: Kindly state the category for this compound: `Cn1ncc(NCc2cccc(COC(C)(C)C)c2)c(Cl)c1=O`
Result: group C

Problem: Looking at CC1N(C)C(=O)COC12CCN(C(=O)Cc1ccsc1)CC2 (configuration not stated) , which class would you pick?
Result: group C

Problem: Quick check: band for `CCCc1nnc2sc(C3CCN(CCOC)CC3)nn12`
Result: group B

Problem: Just checking, what class would you give COCCN1CCC2(CC1)CC(c1cccnc1)C(=O)N2C (configuration not stated) here?
Result: group B

Problem: State the band of `CN1CCN(CC2CC2)C(=O)C12CCN(C(=O)CC(F)(F)F)CC2`
Result: group A

Problem: Lab note: which band did CCCc1noc(C(C)S(=O)(=O)Cc2nc(C3CC3)no2)n1 (configuration not stated) land in?
Result: group B

Problem: Please let me know in which category the item `CCS(=O)(=O)N1CCn2cc(CN(C)Cc3ccco3)nc2C1` belongs.
Result: group C

Problem: Class label required: `Cc1ccc(CN(C)C(=O)CCn2c(=O)n(C)c3ccccc32)o1`
Result: group C

Problem: Class for `Cc1nnc(CCNC(=O)[C@H]2CNC[C@@H](C(=O)N3CCCC3)C2)s1` ?
Result: group A

Problem: Class for Cc1cnn(CC2CCCN2CC(=O)NC2CCN(C3CC3)CC2)c1 (configuration not stated) ?
Result: group A

Problem: Class for `Cc1c(C(=O)NCc2ccnc(OCC(F)(F)F)c2)cnn1C` ?
Result: group A

Problem: Returns: class label. Input: `CN1CCN(C)C2(CCN(C(=O)CC(F)(F)F)CC2)C1=O`
Result: group B

Problem: Could you place CCc1noc(CS(=O)(=O)C(C)c2nc(C3CC3)no2)n1 (configuration not stated) in its proper category? Many thanks.
Result: group C

Problem: Lab log: CC1N(C)C(=O)COC12CCN(Cc1nccs1)CC2 (configuration not stated) — assign INHIBITION category
Result: group C

Problem: Exercise: read the entry CC(C)c1noc(C(C)S(=O)(=O)Cc2nc(C3CC3)no2)n1 (configuration not stated) and state which class it falls under.
Result: group C

Problem: Classify this compound: `COc1cccc(CNc2cnn(C)c(=O)c2Cl)c1`
Result: group C

Problem: The entry to classify is `COCCN1CCn2cc(CN(C)Cc3ccco3)nc2C1` ; which class holds it?
Result: group C

Problem: GET /class?item= `Cc1noc(C)c1CS(=O)(=O)Cc1nc(C2CC2)no1`
Result: group B

###

- System: Plasmodium berghei
- experiment summary: Screen against P. berghei liver stage (PbLuc), transformed with Luciferase, at 10uM
- Assay type: functional, HepG2
- study conditions: tested at 10 uM
The campaign covered roughly 69,000 compounds. About 8,600 (12%) showed an effect of 50% or more. The full list was thinned out, with strong results kept by preference.
Consider the following compounds; for each one, report its INHIBITION.
Entry rule: numbers only, all in %.

Problem: Fill in the blank: the reported INHIBITION of CCCOC(=O)NCCC1CN(c2cnn(C)c(=O)c2)CCO1 (stereo unspecified) is ____.
Result: 45.3

Problem: What does the record list as INHIBITION for O=C(NCc1ccc(Cl)cc1)N1CCN(CC(O)C2CC2)CC1 (stereo unspecified) ?
Result: 25.9

Problem: Recorded INHIBITION of `CN(C)C(=O)N1CCC2(CC1)CN(Cc1ccccn1)C(=O)CO2` , please.
Result: 30.4

Problem: Any idea what INHIBITION was measured for CCCS(=O)(=O)NCC(C)(O)c1ccsc1 (stereo unspecified) ?
Result: 20.9

Problem: Fill in: INHIBITION of Cc1cccc(NC(=O)C2CCc3ccccc3N2)c1 (stereo unspecified) is ___
Result: -71.7

Problem: Looking for the measured INHIBITION of `CCn1c(N)nc2cc(C(=O)NCc3cccc(C)c3C)cnc21` , can you help?
Result: -25.7

###

- Test system: Plasmodium berghei
- experiment summary: Screen against P. berghei liver stage (PbLuc), transformed with Luciferase, at 10uM
- Format: functional, HepG2
- study conditions: tested at 10 uM
Out of some 69,000 compounds screened, about 8,600 (12%) showed an effect of 50% or more. The sample holds strong results, similar compounds and a random draw of the others, so the mix is not that of the screen.
Binary label based on INHIBITION with cut-off 20%: below gives 1.0, not below gives 0.0.

Problem: Decide: INHIBITION of `Cc1cc(N2CCN(C3CCSCC3)CC2)n2nc(C)c(C)c2n1` strictly below 20%?
Result: 0.0

Problem: Does `CCN(C)c1ccc(CNC(=O)CCn2cc(C)cn2)cc1F` have INHIBITION strictly under 20%?
Result: 1.0

Problem: Quick check: does Cc1cc(C(F)(F)F)nc(CNC(=O)CCC2CCCN(C)C2)n1 (stereo unspecified) have INHIBITION under 20%?
Result: 0.0

Problem: Given `CN(C1CCN(C(=O)NCCc2ccc(F)cc2F)CC1)S(C)(=O)=O` , is recorded INHIBITION strictly lower than 20%?
Result: 0.0

Problem: Please determine if `Cc1cc(NC(=O)c2ccc(F)cc2Br)n(C)n1` is below 20% in terms of INHIBITION.
Result: 1.0

Problem: Does this compound meet the criterion INHIBITION < 20%? Cc1cc(N2CCN3CCCCC3C2)n2nc(C)c(C)c2n1 (stereo unspecified)
Result: 1.0
